target: full-length recombinant human FYN A (Homo sapiens (Human)); experiment: ADP-Glo Kinase Assay of FYN kinase inhibition; assay type: biochemical; conditions: primary screen, initial compounds
Sequence (P06241 whole entry): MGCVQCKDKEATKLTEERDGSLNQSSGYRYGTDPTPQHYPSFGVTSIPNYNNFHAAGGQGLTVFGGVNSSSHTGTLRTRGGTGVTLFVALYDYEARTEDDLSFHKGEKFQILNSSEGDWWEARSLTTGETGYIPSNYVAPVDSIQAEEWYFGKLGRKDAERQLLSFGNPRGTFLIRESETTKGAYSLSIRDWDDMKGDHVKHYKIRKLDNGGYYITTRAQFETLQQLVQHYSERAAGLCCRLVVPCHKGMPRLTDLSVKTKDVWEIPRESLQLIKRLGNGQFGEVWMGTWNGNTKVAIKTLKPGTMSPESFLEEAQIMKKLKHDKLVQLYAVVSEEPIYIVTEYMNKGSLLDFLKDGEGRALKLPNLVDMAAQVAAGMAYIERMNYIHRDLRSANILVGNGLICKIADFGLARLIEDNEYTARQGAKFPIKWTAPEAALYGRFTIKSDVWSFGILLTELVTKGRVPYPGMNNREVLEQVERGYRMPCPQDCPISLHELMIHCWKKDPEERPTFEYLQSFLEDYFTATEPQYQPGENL
pIC50: −log10 of the molar value.
Param threshold (6) applies to pIC50; output Criterion met when value >= threshold, Criterion not met when value < threshold.

Solved entries (count: 3):
{"columns": ["Compound", "Target Or System", "Category Label"],
 "data": [
  ["Cc1cccc(Cc2ccc3ncc(-c4cnn(C)c4)n3n2)c1 [Compound 477]", "full-length recombinant human FYN A (Homo sapiens (Human))", "Criterion not met"],
  ["CNc1ccc2ncc(-c3ccc(F)cc3)n2n1 [Compound 437_0339]", "full-length recombinant human FYN A (Homo sapiens (Human))", "Criterion not met"],
  ["COc1ccc(-c2ccc3ncc(-c4cccc(C(C)=O)c4)n3n2)cc1OC [Compound 277]", "full-length recombinant human FYN A (Homo sapiens (Human))", "Criterion met"]
]}

Query :: Does pIC50 meet or surpass 6 for Cn1cc(-c2ccc3ncc(-c4cccc(O)c4)n3n2)cn1 [Compound 397] ?
Result :: Criterion met

Query :: Does pIC50 meet or surpass 6 for CN(C)CCCOc1ccc(-c2cn3c(-c4ccc5c(c4)OCO5)cnc3cn2)cn1 [Compound 231] ?
Result :: Criterion not met

Query :: Does pIC50 meet or surpass 6 for COc1cc(Nc2cncc(-c3cccc(NC(C)=O)c3)c2)cc(OC)c1OC [081_0087_0081] ?
Result :: Criterion met

Query :: Does pIC50 meet or surpass 6 for COc1cncc(-c2ccc3ncc(-c4cccc(CO)c4)n3n2)c1 [Compound 344] ?
Result :: Criterion not met

Query :: Does pIC50 meet or surpass 6 for COc1cc(-c2cnc3ccc(NCc4ccc(C)cc4C)nn23)ccc1O [229_4319_0314] ?
Result :: Criterion not met

Query :: Does pIC50 meet or surpass 6 for CN(C)CCNC(=O)c1ccc(-c2cn3c(-c4ccc(Cl)cc4)cnc3cn2)cc1 [Compound 240] ?
Result :: Criterion not met

Query :: Does pIC50 meet or surpass 6 for Nc1ccc(-c2cnc3ccc(Cc4ccccc4)nn23)cn1 [Compound 486] ?
Result :: Criterion not met

Query :: Does pIC50 meet or surpass 6 for CN1CCN(c2ccc(-c3cn4c(-c5ccc6c(c5)OCO6)cnc4cn3)cc2)CC1 [Compound 233] ?
Result :: Criterion not met

Query :: Does pIC50 meet or surpass 6 for COc1cc(-c2ccc3ncc(-c4ccc(OC)c(OC)c4)n3n2)ccc1O [Compound 320] ?
Result :: Criterion met

Query :: Does pIC50 meet or surpass 6 for COc1cc(-c2cnc3cnc(-c4cccc(NS(C)(=O)=O)c4)cn23)cc(OC)c1OC [388_0087_6488] ?
Result :: Criterion not met

Query :: Does pIC50 meet or surpass 6 for COc1cc(-c2n[nH]c3nccc(-c4ccc(C(C)C)cc4)c23)cc(OC)c1OC [Compound 505] ?
Result :: Criterion not met

Query :: Does pIC50 meet or surpass 6 for CN(C)c1cccc(-c2cc(-c3cccc(C(=O)NCCO)c3)cnc2N)c1 [382_0135_0192] ?
Result :: Criterion not met

Query :: Does pIC50 meet or surpass 6 for Cc1cc(-c2cnc(N)c(-c3cccc(N(C)C)c3)c2)cc(C)c1O [382_0135_0315] ?
Result :: Criterion not met

Query :: Does pIC50 meet or surpass 6 for COc1ccc(F)cc1-c1ccnc2[nH]nc(C3CCNCC3)c12 [Compound 524] ?
Result :: Criterion not met

Query :: Does pIC50 meet or surpass 6 for CC(=O)Nc1ccc(-c2ccc3ncc(-c4cccc(O)c4)n3n2)cc1 [Compound 283] ?
Result :: Criterion met

Query :: Does pIC50 meet or surpass 6 for CC(C)N1CCN(c2ccc(-c3cn4c(-c5ccc(O)cc5)cnc4cn3)cc2)CC1 [388_0080_0182] ?
Result :: Criterion met

Query :: Does pIC50 meet or surpass 6 for COCCNc1ccc2ncc(-c3ccc(OC)c(OC)c3)n2n1 [229_0033_0079] ?
Result :: Criterion not met

Query :: Does pIC50 meet or surpass 6 for CS(=O)(=O)c1ccc(Nc2cc3[nH]c(-c4cn[nH]c4)cc3cn2)cc1 [Compound 307] ?
Result :: Criterion not met

Query :: Does pIC50 meet or surpass 6 for COc1cc(-c2cnc(N)c(-c3cccc(N(C)C)c3)c2)cc(OC)c1OC [382_0135_0087] ?
Result :: Criterion not met

Query :: Does pIC50 meet or surpass 6 for CNc1ccc2ncc(/C=C\CCCO)n2n1 [Compound 542] ?
Result :: Criterion not met

Query :: Does pIC50 meet or surpass 6 for COc1ccc(-c2cnc3sc(NCc4ccncc4)nn23)cn1 [Compound 287] ?
Result :: Criterion not met

Query :: Does pIC50 meet or surpass 6 for COCOc1ccc(-c2cc(-c3ccc(C(N)=O)cc3)cnc2N)cc1 [382_0341_0346] ?
Result :: Criterion not met
